Reported log10 of IC50 values for a set of compounds
# TESTED TARGET: Microsomal triglyceride transfer protein large subunit (Homo sapiens, UniProt P55157)
# Sequence (P55157 whole entry): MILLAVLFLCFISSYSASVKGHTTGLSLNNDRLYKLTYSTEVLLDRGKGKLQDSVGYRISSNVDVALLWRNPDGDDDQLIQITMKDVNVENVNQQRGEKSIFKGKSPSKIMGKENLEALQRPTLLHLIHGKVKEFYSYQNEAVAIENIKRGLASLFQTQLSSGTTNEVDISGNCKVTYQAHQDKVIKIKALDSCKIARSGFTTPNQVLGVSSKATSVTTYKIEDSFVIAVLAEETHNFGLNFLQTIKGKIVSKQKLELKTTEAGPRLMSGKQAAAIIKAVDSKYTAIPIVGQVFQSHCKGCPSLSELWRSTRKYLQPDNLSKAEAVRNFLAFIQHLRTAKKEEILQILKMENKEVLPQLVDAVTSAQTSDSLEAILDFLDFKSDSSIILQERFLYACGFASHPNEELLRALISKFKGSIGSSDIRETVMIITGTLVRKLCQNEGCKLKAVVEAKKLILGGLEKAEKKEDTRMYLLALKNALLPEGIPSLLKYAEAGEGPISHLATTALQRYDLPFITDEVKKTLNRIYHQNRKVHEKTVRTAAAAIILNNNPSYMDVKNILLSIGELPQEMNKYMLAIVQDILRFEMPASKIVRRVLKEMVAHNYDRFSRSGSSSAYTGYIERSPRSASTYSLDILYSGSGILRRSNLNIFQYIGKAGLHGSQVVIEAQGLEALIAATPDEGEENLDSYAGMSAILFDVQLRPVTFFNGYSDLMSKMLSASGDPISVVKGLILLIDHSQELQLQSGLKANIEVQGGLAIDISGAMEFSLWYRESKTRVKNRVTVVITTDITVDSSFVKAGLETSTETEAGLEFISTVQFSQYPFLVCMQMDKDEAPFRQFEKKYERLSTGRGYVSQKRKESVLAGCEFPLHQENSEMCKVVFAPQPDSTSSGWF
# PROTOCOL NOTES: In vitro inhibitory activity against MTP using MTP transfer assay
RECORDED METRIC: log10 of IC50 (log10 of the value in nM)

>>> result_value("COC(=O)N1CCN([C@@H]2Cc3ccc(NC(=O)c4cccc(C)c4-c4ccc(C(F)(F)F)cc4)cc3C2)CC1")
3.00
>>> result_value("Cc1cccc(C(=O)Nc2ccc3c(c2)CCC(NS(C)(=O)=O)CC3)c1-c1ccc(C(F)(F)F)cc1 (configuration not stated)")
1.90
>>> result_value("COc1cccc(C(=O)Nc2ccc3c(c2)CC(NS(=O)(=O)c2ccccc2)C3)c1-c1ccc(Cl)cc1 (configuration not stated)")
2.04
>>> result_value("COC(=O)N[C@@H]1Cc2ccc(NC(=O)c3ccccc3-c3ccc(C(F)(F)F)cc3)cc2C1")
2.04
>>> result_value("COC(=O)NC1CCc2ccc(NC(=O)c3cccc(C)c3-c3ccc(Cl)cc3)cc2CC1 (configuration not stated)")
1.90
>>> result_value("Cc1cccc(C(=O)Nc2ccc3c(c2)CC(NS(=O)(=O)c2ccccc2)C3)c1-c1ccc(C#N)cc1 (configuration not stated)")
2.08
>>> result_value("COC(=O)N1CCN([C@H]2Cc3ccc(NC(=O)c4cccc(C)c4-c4ccc(C(F)(F)F)cc4)cc3C2)CC1")
1.60
>>> result_value("Cc1cccc(C(=O)Nc2ccc3c(c2)CC(CNS(=O)(=O)c2cccs2)C3)c1-c1ccc(C(F)(F)F)cc1 (configuration not stated)")
1.15
>>> result_value("Cc1cc(C)c(-c2ccc(C(F)(F)F)cc2)c(C(=O)Nc2ccc3c(c2)C[C@H](NS(=O)(=O)c2cccs2)C3)c1")
1.30
>>> result_value("COC(=O)N[C@H]1Cc2ccc(NC(=O)c3cccc(C(F)(F)F)c3-c3ccc(C(F)(F)F)cc3)cc2C1")
1.70
>>> result_value("COC(=O)N[C@H]1Cc2ccc(NC(=O)c3cc(C(F)(F)F)ccc3-c3ccc(C(F)(F)F)cc3)cc2C1")
2.61
>>> result_value("CS(=O)(=O)NC1Cc2ccc(NC(=O)c3ccccc3-c3ccc(C(F)(F)F)cc3)cc2C1 (configuration not stated)")
2.08
>>> result_value("COC(=O)NC1Cc2ccc(NC(=O)c3cc(C)cc(C)c3-c3ccc(Cl)cc3)cc2C1 (configuration not stated)")
2.08
>>> result_value("Cc1cccc(C(=O)Nc2ccc3c(c2)CC(NS(=O)(=O)c2cccs2)C3)c1-c1ccc(F)cc1 (configuration not stated)")
1.70
>>> result_value("Cc1cccc(C(=O)Nc2ccc3c(c2)CCC(NS(=O)(=O)c2cccs2)CC3)c1-c1ccc(C(F)(F)F)cc1 (configuration not stated)")
2.15
>>> result_value("Cc1cccc(C(=O)Nc2ccc3c(c2)C[C@@H](NS(C)(=O)=O)C3)c1-c1ccc(C(F)(F)F)cc1")
2.31
>>> result_value("O=C(Nc1ccc2c(c1)CC(NS(=O)(=O)c1ccccc1)C2)c1ccccc1-c1ccc(C(F)(F)F)cc1 (configuration not stated)")
2.02

* * *

Reported IC50 values for a set of compounds
# TESTED TARGET: Microsomal triglyceride transfer protein large subunit (Homo sapiens, UniProt P55157)
# PROTOCOL NOTES: In vitro inhibitory activity against MTP using MTP transfer assay
RECORDED METRIC: IC50 (nM)

>>> result_value("Cc1cccc(C(=O)Nc2ccc3c(c2)C[C@@H](NCc2ccccn2)C3)c1-c1ccc(C(F)(F)F)cc1")
100
>>> result_value("Cc1cccc(C(=O)Nc2ccc3c(c2)CC(NS(C)(=O)=O)C3)c1-c1ccc(F)cc1 (stereo not drawn)")
170
>>> result_value("Cc1cccc(C(=O)Nc2ccc3c(c2)CC(NS(C)(=O)=O)C3)c1-c1ccc(Cl)cc1 (stereo not drawn)")
100

* * *

# TESTED TARGET: Microsomal triglyceride transfer protein large subunit (Homo sapiens)
# PROTOCOL NOTES: In vitro inhibitory activity against MTP using MTP transfer assay
Reported IC50 values for a set of compounds
RECORDED METRIC: IC50

>>> result_value("Cc1cccc(C(=O)Nc2ccc3c(c2)CC(CNS(C)(=O)=O)C3)c1-c1ccc(C(F)(F)F)cc1 (centres undefined)")
"150 nM"
>>> result_value("Cc1ccc(-c2c(C)cccc2C(=O)Nc2ccc3c(c2)CC(NS(=O)(=O)c2ccccc2)C3)cc1 (centres undefined)")
"93 nM"
>>> result_value("Cc1cccc(C(=O)Nc2ccc3c(c2)C[C@H](NS(C)(=O)=O)C3)c1-c1ccc(C(F)(F)F)cc1")
"34 nM"
>>> result_value("O=C(NC1Cc2ccc(NC(=O)c3ccccc3-c3ccc(C(F)(F)F)cc3)cc2C1)c1ccccc1 (centres undefined)")
"> 1000 nM"
